- TARGET SYSTEM: Wee1-like protein kinase (Homo sapiens, UniProt P30291)
- Sequence (P30291 whole entry): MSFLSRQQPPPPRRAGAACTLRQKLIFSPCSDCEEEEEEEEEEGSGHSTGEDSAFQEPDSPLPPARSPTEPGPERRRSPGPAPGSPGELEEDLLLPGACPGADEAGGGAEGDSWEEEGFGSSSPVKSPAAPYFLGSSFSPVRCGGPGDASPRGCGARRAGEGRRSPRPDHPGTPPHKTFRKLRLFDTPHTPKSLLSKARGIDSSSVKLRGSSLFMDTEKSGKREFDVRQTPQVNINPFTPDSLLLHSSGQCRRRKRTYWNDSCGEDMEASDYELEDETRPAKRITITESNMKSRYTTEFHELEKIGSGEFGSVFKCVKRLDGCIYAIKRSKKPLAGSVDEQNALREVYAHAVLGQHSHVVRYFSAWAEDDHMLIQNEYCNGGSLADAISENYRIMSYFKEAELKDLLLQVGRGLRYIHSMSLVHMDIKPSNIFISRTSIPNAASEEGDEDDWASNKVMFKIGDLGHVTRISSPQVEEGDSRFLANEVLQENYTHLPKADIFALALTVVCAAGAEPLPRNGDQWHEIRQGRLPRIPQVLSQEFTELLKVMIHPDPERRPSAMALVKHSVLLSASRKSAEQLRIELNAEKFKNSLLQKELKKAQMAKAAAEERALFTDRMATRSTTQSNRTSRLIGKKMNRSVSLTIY
Binary label based on IC50 with cut-off 30 nM: below gives met, not below gives not met.

• N#CCCn1c2ccc(O)cc2c2c3c(c(-c4ccccc4Cl)cc21)C(=O)NC3=O = met
• O=C1NC(=O)c2c1c(-c1ccccc1Cl)cc1c2c2cc(O)ccc2n1CCCc1nnn[nH]1 = met
• CN(C)CCNC(=O)CCn1c2ccc(O)cc2c2c3c(c(-c4c(Cl)cccc4Cl)cc21)C(=O)NC3=O = met
• CN1CCN(CCCn2c3ccc(O)cc3c3c4c(c(-c5c(Cl)cccc5Cl)cc32)C(=O)NC4=O)CC1 = not met
• COCCCn1c2ccc(O)cc2c2c3c(c(-c4ccccc4Cl)cc21)C(=O)NC3=O = met

# input for lookup
Please state whether IC50 is below 30 nM for `O=C(CCn1c2ccc(O)cc2c2c3c(c(-c4ccccc4Cl)cc21)C(=O)NC3=O)NS(=O)(=O)c1ccccc1` met

----------
Recorded solubility for the following compounds
- EXPERIMENTAL DETAILS: physchem
- ASSAY SETUP: buffer
- Description: Aqueous solubility of the compound

• O=C1NC(=O)c2c1c(-c1c(Cl)cccc1Cl)cc1c2c2cc(O)ccc2n1CCn1ccnc1 = < 3 µg/mL

For `O=C1NC(=O)c2c1c(-c1ccccc1Cl)cc1c2c2cc(O)ccc2n1CCO` the compound record lists solubility as < 3 µg/mL

Recorded solubility (compound `CN(C)CCNC(=O)CCn1c2ccc(O)cc2c2c3c(c(-c4ccccc4Cl)cc21)C(=O)NC3=O` ): > 60 µg/mL

What the record says about `NC(=O)CCn1c2ccc(O)cc2c2c3c(c(-c4c(Cl)cccc4Cl)cc21)C(=O)NC3=O` : solubility is < 3 µg/mL

Lab note: measured solubility of `O=C1NC(=O)c2c1c(-c1c(Cl)cccc1Cl)cc1c2c2cc(O)ccc2n1CCCO` was < 3 µg/mL
